- assay-name: physchem
- recorded-conditions: buffer
- Description: Aqueous kinetic solubility of the compund by CLND method
measurement-type: solubility kinetic

Q: Reported solubility kinetic, molecule Cc1cc(C)n(-c2cccc([C@H](CC(=O)[O-])C[N@@+]3(C)CC[C@@H](CCc4ccc5c(n4)NCCC5)C3)c2)n1 : ____
Result: > 1000 µg/mL

* * *

- assay-name: Blood clearance in dual cannulated Wistar-Han rat at 1 mg/kg, iv administered as infusion for 30 mins and measured up to 24 hrs by LC-MS/MS analysis
- Format: ADME, organism-based
- recorded-conditions: whole blood
measurement-type: clearance (mL/min/kg)
I only need the number, in mL/min/kg, no unit after it.

Q: Reported clearance, molecule Cc1cc(C)n(-c2cccc([C@H](CC(=O)O)CN3CC[C@@H](CCc4ccc5c(n4)NCCC5)C3)c2)n1.Cl : ____
Result: 56

Provenance of the data: ChEMBL document CHEMBL4373707
